Source listed as patent US20120190751A1.

- Target Of Assay: 5HT2B receptor (Homo sapiens)
- Sequence (P41595 whole entry): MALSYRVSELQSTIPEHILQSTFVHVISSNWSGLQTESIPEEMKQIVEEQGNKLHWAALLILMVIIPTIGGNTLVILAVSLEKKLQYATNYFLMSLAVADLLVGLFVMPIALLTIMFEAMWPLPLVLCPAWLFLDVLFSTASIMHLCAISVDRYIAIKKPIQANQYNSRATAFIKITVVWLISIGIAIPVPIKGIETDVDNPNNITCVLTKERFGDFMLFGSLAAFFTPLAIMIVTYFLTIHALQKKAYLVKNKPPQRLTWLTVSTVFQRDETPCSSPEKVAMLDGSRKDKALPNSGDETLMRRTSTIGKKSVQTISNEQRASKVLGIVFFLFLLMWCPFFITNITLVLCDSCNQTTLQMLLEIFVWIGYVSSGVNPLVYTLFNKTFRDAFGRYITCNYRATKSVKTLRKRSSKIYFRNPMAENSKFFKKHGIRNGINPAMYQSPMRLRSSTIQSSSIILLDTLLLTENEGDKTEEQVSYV
Measurement Label: Ki
Respond with a number, then the unit of measure.

The recorded Ki with 5HT2B receptor (Homo sapiens) for "COc1ccc(C=NNC(=N)N)c(Cl)c1OC" was 0.263 µM

###

- Target Of Assay: 5-HT2C receptor (Homo sapiens)
- Sequence (P28335 33-458): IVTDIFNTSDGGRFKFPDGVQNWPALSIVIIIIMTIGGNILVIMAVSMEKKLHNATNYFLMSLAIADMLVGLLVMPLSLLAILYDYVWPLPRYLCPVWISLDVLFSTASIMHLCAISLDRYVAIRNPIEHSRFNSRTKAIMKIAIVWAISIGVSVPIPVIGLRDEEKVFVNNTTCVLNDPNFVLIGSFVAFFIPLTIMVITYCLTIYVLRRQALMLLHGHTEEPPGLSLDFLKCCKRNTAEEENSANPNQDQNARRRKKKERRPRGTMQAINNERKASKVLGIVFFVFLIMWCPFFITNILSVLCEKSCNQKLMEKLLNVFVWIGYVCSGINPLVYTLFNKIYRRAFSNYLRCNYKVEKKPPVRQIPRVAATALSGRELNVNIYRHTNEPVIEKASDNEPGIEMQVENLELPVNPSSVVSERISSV
- Experimental Protocol: Radio-ligand binding assay 5-HT2C
- Run Conditions: 10 different concentrations; Cheng-Prusoff; FIG. 1
Measurement Label: pKi
# pKi = -log10(concentration in molar units)

In plain terms, "COc1ccc(C=NNC(=N)N)c(Cl)c1OC" has a documented pKi of 6.06

###

- Target Of Assay: 5-HT2C receptor (Homo sapiens)
- Experimental Protocol: 5-HT2C GTPγS binding assay (functionality)
- Run Conditions: FIG. 2, read-out: IC50, antagonistic effect on 5-HT2C
- Procedure: FIG. 2. Antagonistic effect of N-(2-chloro-3,4-dimethoxybenzylideneamino)guanidine on 5-HT2B and 5-HT2C receptors. The functionality of the compound was evaluated with the 5-HT2B tissue assay and the 5-HT2C GTPγS binding assay methods. […]
Measurement Label: pIC50
# pIC50 = -log10(concentration in molar units)

In plain terms, "COc1ccc(C=NNC(=N)N)c(Cl)c1OC" has a documented pIC50 of 4.78
